Origin of values: patent US7884244B2

Target: alpha2B receptor (Homo sapiens)
Sequence (P18089 1-450): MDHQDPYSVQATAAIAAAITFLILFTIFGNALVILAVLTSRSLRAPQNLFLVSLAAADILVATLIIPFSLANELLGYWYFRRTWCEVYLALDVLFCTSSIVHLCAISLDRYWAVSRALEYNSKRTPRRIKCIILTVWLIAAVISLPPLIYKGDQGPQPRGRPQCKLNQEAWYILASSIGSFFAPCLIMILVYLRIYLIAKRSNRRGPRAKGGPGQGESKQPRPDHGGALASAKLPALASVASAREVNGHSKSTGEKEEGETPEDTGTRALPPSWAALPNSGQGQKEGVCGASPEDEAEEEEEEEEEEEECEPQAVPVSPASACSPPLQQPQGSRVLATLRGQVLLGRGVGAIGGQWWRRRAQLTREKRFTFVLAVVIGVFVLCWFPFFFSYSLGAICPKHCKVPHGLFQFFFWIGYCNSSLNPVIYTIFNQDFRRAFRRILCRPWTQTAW
Experiment: Receptor Selection and Amplification Technology (RSAT) assay, alpha2B
Settings: RSAT, transfected NIH-3T3 cells with Gq/i5; not active = not active at concentrations less than 10 micromolar; read-out: Alpha 2B EC50
pEC50: −log10 of the molar value.
Measured Quantity: pEC50

INSERT INTO measurements (molecule, result) VALUES
  ('N#C/N=C(\NCCF)NC1CCc2ccc(F)cc21 (stereo not shown)', 6.78),
  ('N#C/N=C(\NCCF)NC1CCc2cccc(F)c21 (stereo not shown)', 6.32),
  ('N#C/N=C(/NCCF)NCc1cccc(Br)c1', 5.84),
  ('CCc1cccc2c1CCC2N/C(=N\C#N)NCCF (stereo not shown)', 5.98);
